Test: drug combination growth inhibition, ovarian cancer – cell-based, oncology-focused library, rucaparib conditional, profiling panel (AID 1508598)
Conditions: patient-derived ovarian cancer cells, CellTiter-Glo viability, 144 h; at 0.000305 µM; OCI-C5x cells; with rucaparib 10 µM; active compounds read low; 100% = cells with rucaparib alone
Each record here notes measured viability.
State the answer as a number, implicitly in %.

Solved entries (count: 5):
COMPOUND	viability / %
O=NN(CCCl)C(=O)NC1CCCCC1	106
CN(Cc1cnc2nc(N)nc(N)c2n1)c1ccc(C(=O)N[C@@H](CCC(=O)O)C(=O)O)cc1	110
CC(c1cc2ccccc2s1)N(O)C(N)=O (stereo not given)	111
Cc1cc2c(C(C)C)c(O)c(O)c(C=O)c2c(O)c1-c1c(C)cc2c(C(C)C)c(O)c(O)c(C=O)c2c1O	113
Cn1nnc2c(C(N)=O)ncn2c1=O	103

Challenge: Report viability for COc1ccccc1OCC(O)CN1CCN(CC(=O)Nc2c(C)cccc2C)CC1 (stereo not given)
Response given: 108

Challenge: Report viability for "Cc1nc2ccc(CN(C)c3ccc(C(=O)N[C@@H](CCC(=O)O)C(=O)O)s3)cc2c(=O)[nH]1"
Response given: 114

Challenge: Report viability for "COC(=O)Nc1nc2ccc(C(=O)c3cccs3)cc2[nH]1"
Response given: 120

Challenge: Report viability for "COc1cc2c(N3CCN(C(=O)Nc4ccc(OC(C)C)cc4)CC3)ncnc2cc1OCCCN1CCCCC1"
Response given: 113

Challenge: Report viability for "Cc1nc(-c2ccc(OCC(C)C)c(C#N)c2)sc1C(=O)O"
Response given: 118
